Each recorded value in this set is attributed to paper PMC9457941.

biological target: MmCLK1 (Mus musculus); construct: host or cells: bacteria; experiment: ADP-Glo kinase inhibition assay, CLK1; format: biochemical; settings: read-out: CLK1 % residual activity at 10 μM
Sequence (P22518 whole entry): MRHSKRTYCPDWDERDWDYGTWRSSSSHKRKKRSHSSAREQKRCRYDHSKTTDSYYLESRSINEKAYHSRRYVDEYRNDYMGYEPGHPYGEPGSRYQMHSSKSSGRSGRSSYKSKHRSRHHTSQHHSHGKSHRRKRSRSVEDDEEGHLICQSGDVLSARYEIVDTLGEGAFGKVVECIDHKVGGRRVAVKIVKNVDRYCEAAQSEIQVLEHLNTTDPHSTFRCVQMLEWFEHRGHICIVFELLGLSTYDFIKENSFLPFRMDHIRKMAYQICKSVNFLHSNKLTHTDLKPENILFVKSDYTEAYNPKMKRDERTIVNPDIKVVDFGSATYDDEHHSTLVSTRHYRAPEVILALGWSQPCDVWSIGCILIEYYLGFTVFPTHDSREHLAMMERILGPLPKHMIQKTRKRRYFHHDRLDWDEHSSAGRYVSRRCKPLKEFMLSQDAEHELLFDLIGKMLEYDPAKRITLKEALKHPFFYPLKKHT
RECORDED_ENDPOINT: remaining activity at 10 µM
Your answer should be a number followed by the unit of measure.

Examples with their reported remaining activity at 10 µM follow.
[
  {
    "MOLECULE": "Cn1ncc2cc3cnccc3c(N)c21",
    "OBSERVED": "8%"
  },
  {
    "MOLECULE": "CCn1ncc2c(C3CC3)c3cnccc3c([N+](=O)[O-])c21",
    "OBSERVED": "5%"
  },
  {
    "MOLECULE": "CCc1c2cnccc2c([N+](=O)[O-])c2c1cnn2CC",
    "OBSERVED": "0%"
  },
  {
    "MOLECULE": "CCn1ncc2cc3cnccc3c(N)c21",
    "OBSERVED": "8%"
  },
  {
    "MOLECULE": "CCCc1c2cnccc2c([N+](=O)[O-])c2c1cnn2CC",
    "OBSERVED": "4%"
  },
  {
    "MOLECULE": "Cn1ncc2cc3cnccc3c([N+](=O)[O-])c21",
    "OBSERVED": "10%"
  },
  {
    "MOLECULE": "CCCCc1c2cnccc2c([N+](=O)[O-])c2c1cnn2CC",
    "OBSERVED": "16%"
  },
  {
    "MOLECULE": "CCn1ncc2c(C)c3cnccc3c([N+](=O)[O-])c21",
    "OBSERVED": "0%"
  }
]

For the next question, use this molecule.
QUERY: Any idea what remaining activity at 10 µM was measured for `CCn1ncc2cc3cnccc3c([N+](=O)[O-])c21` ?
RESULT: 6%

====

Recorded remaining activity at 10 µM, one value per entry.
biological target: GSK3β (Homo sapiens, UniProt P49841); construct: host or cells: Sf9 insect cells (baculovirus); test: ADP-Glo kinase inhibition assay, GSK3β; type: biochemical; conditions: read-out: GSK3 % residual activity at 10 μM
Sequence (P49841 whole entry): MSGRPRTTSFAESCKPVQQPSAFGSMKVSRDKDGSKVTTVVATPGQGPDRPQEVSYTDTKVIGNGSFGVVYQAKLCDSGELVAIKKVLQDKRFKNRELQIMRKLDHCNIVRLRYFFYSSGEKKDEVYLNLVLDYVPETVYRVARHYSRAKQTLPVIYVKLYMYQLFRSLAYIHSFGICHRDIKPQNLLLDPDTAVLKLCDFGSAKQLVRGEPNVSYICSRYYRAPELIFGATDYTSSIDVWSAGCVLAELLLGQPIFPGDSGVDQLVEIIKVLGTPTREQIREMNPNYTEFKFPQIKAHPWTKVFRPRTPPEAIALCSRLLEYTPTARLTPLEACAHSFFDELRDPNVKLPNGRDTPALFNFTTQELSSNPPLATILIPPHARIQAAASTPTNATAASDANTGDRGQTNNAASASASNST
Write the numeric value and follow it with the unit.

Worked examples follow.
[
  {
    "COMPOUND": "Cn1ncc2cc3cnccc3c(N)c21",
    "OBSERVED": "44%"
  },
  {
    "COMPOUND": "Nc1c2ccncc2cc2cn[nH]c12 [Compound 2a, 1-H-pyrazolo[3,4-g]isoquinolin-9-amine]",
    "OBSERVED": "18%"
  },
  {
    "COMPOUND": "CCc1c2cnccc2c([N+](=O)[O-])c2c1cnn2CC",
    "OBSERVED": "3%"
  },
  {
    "COMPOUND": "CCn1ncc2c(C3CC3)c3cnccc3c([N+](=O)[O-])c21",
    "OBSERVED": "5%"
  },
  {
    "COMPOUND": "CCCCc1c2cnccc2c([N+](=O)[O-])c2c1cnn2CC",
    "OBSERVED": "10%"
  },
  {
    "COMPOUND": "Cn1ncc2cc3cnccc3c([N+](=O)[O-])c21",
    "OBSERVED": "33%"
  },
  {
    "COMPOUND": "CCn1ncc2cc3cnccc3c([N+](=O)[O-])c21",
    "OBSERVED": "19%"
  },
  {
    "COMPOUND": "CCn1ncc2cc3cnccc3c(N)c21",
    "OBSERVED": "40%"
  }
]

QUERY: # query: remaining activity at 10 µM | item `CCn1ncc2c(C)c3cnccc3c([N+](=O)[O-])c21` | system: GSK3β (Homo sapiens, UniProt P49841)
RESULT: 9%

QUERY: // lookup remaining activity at 10 µM | system=GSK3β (Homo sapiens, UniProt P49841) | key= `CCCc1c2cnccc2c([N+](=O)[O-])c2c1cnn2CC`
RESULT: 5%

QUERY: Recall the recorded remaining activity at 10 µM for `O=[N+]([O-])c1c2ccncc2cc2cn[nH]c12` with GSK3β (Homo sapiens, UniProt P49841) and state it.
RESULT: 50%

QUERY: Fill in the recorded remaining activity at 10 µM for this compound, with GSK3β (Homo sapiens, UniProt P49841) as test system: `CCn1ncc2cc3cncc(Br)c3c([N+](=O)[O-])c21`
RESULT: 80%

====

molecular target: CDK5/p25 (Homo sapiens, UniProt Q00535); construct: host or cells: bacteria; test: ADP-Glo kinase inhibition assay, CDK5/p25; assay type: biochemical; conditions: read-out: CDK5 % residual activity at 10 μM
Sequence (Q00535 whole entry): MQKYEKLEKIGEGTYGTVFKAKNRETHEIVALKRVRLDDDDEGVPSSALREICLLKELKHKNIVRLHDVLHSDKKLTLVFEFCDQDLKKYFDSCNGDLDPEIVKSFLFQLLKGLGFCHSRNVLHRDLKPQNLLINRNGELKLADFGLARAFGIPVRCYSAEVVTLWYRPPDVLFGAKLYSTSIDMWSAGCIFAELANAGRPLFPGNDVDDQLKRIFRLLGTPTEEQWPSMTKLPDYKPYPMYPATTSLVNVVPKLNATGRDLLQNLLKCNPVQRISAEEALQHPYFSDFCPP
Sequence (Q15078 99-307, further chain): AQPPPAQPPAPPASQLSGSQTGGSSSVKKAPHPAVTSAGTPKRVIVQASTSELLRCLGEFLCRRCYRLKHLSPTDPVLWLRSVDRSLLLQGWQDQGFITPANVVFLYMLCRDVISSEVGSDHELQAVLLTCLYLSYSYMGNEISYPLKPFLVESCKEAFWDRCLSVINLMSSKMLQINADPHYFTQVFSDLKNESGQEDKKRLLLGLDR
The entries below are paired with their reported remaining activity at 10 µM.
Give the value, in units of %, as a plain number.

[
  {
    "MOLECULE": "Nc1c2ccncc2cc2cn[nH]c12 [Compound 2a, 1-H-pyrazolo[3,4-g]isoquinolin-9-amine]",
    "OBSERVED": 17
  },
  {
    "MOLECULE": "CCc1c2cnccc2c([N+](=O)[O-])c2c1cnn2CC",
    "OBSERVED": 16
  },
  {
    "MOLECULE": "CCCCc1c2cnccc2c([N+](=O)[O-])c2c1cnn2CC",
    "OBSERVED": 57
  }
]

QUERY: Report remaining activity at 10 µM for `Cn1ncc2cc3cnccc3c(N)c21` please.
RESULT: 60

QUERY: // lookup remaining activity at 10 µM for `CCn1ncc2cc3cnccc3c(N)c21`
RESULT: 28

QUERY: Dear colleague, I am looking for the recorded remaining activity at 10 µM of the following molecule: `CCn1ncc2c(C)c3cnccc3c([N+](=O)[O-])c21`
RESULT: 35

QUERY: Given `CCCc1c2cnccc2c([N+](=O)[O-])c2c1cnn2CC` , state its recorded remaining activity at 10 µM.
RESULT: 10

QUERY: Find the recorded remaining activity at 10 µM belonging to `O=[N+]([O-])c1c2ccncc2cc2cn[nH]c12` and report it.
RESULT: 62

QUERY: # get_value(readout='remaining activity at 10 µM', item= `Cn1ncc2cc3cnccc3c([N+](=O)[O-])c21` )
RESULT: 43

QUERY: Record request: remaining activity at 10 µM value, item `CCn1ncc2cc3cnccc3c([N+](=O)[O-])c21`
RESULT: 79

QUERY: Query (molecule): `CCn1ncc2c(C3CC3)c3cnccc3c([N+](=O)[O-])c21` ; field requested: remaining activity at 10 µM
RESULT: 24

QUERY: Name the recorded remaining activity at 10 µM for `CCn1ncc2cc3cncc(Br)c3c([N+](=O)[O-])c21` .
RESULT: 32

====

Listed below: remaining activity at 1 µM values for each entry.
biological target: CDK9/CyclinT (Homo sapiens); construct: host or cells: Sf9 insect cells (baculovirus); test: ADP-Glo kinase inhibition assay, CDK9/CyclinT; type: biochemical; details: read-out: CDK9 % residual activity at 1 μM
Sequence (O60563 whole entry): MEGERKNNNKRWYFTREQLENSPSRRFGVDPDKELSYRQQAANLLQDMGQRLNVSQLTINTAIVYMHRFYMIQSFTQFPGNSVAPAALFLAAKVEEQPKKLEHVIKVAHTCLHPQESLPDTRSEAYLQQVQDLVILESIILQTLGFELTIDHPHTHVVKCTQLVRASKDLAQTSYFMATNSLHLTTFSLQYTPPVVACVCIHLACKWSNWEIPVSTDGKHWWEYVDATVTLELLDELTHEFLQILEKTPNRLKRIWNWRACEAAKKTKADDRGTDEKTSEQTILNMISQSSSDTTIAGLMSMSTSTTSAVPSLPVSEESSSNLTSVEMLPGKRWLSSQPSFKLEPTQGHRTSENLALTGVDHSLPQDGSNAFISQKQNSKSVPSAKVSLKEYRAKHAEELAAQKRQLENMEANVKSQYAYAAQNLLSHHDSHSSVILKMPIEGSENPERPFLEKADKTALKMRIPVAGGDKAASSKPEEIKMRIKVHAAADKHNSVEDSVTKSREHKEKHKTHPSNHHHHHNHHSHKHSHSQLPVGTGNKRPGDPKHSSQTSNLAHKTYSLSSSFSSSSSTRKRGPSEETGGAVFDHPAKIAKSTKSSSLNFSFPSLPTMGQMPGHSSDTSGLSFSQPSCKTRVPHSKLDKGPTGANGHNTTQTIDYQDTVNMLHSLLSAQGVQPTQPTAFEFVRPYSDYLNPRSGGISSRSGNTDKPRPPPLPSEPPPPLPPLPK
Sequence (P50750 whole entry): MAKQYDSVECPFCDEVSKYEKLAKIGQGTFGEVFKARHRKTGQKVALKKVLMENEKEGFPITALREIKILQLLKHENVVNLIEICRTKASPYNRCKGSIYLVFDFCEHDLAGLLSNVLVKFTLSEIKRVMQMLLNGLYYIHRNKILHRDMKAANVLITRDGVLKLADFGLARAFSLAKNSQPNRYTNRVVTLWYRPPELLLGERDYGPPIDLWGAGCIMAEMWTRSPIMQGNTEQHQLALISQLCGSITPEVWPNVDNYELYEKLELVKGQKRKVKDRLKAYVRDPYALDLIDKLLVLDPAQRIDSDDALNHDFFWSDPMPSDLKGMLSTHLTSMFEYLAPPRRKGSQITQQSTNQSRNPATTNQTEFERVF
Number first, unit second: that is the form wanted.

[
  {
    "COMPOUND": "Nc1c2ccncc2cc2cn[nH]c12 [Compound 2a, 1-H-pyrazolo[3,4-g]isoquinolin-9-amine]",
    "remaining activity at 1 µM": "22%"
  },
  {
    "COMPOUND": "Cn1ncc2cc3cnccc3c(N)c21",
    "remaining activity at 1 µM": "39%"
  },
  {
    "COMPOUND": "CCCCc1c2cnccc2c([N+](=O)[O-])c2c1cnn2CC",
    "remaining activity at 1 µM": "33%"
  },
  {
    "COMPOUND": "CCn1ncc2cc3cncc(Br)c3c([N+](=O)[O-])c21",
    "remaining activity at 1 µM": "59%"
  },
  {
    "COMPOUND": "CCCc1c2cnccc2c([N+](=O)[O-])c2c1cnn2CC",
    "remaining activity at 1 µM": "18%"
  },
  {
    "COMPOUND": "CCn1ncc2c(C)c3cnccc3c([N+](=O)[O-])c21",
    "remaining activity at 1 µM": "43%"
  },
  {
    "COMPOUND": "O=[N+]([O-])c1c2ccncc2cc2cn[nH]c12",
    "remaining activity at 1 µM": "86%"
  },
  {
    "COMPOUND": "CCc1c2cnccc2c([N+](=O)[O-])c2c1cnn2CC",
    "remaining activity at 1 µM": "25%"
  },
  {
    "COMPOUND": "Cn1ncc2cc3cnccc3c([N+](=O)[O-])c21",
    "remaining activity at 1 µM": "57%"
  },
  {
    "COMPOUND": "CCn1ncc2c(C3CC3)c3cnccc3c([N+](=O)[O-])c21",
    "remaining activity at 1 µM": "33%"
  }
]

QUERY: Report remaining activity at 1 µM for `CCn1ncc2cc3cnccc3c([N+](=O)[O-])c21` tested on CDK9/CyclinT (Homo sapiens).
RESULT: 46%

QUERY: Report remaining activity at 1 µM for `CCn1ncc2cc3cnccc3c(N)c21` tested on CDK9/CyclinT (Homo sapiens).
RESULT: 80%
